experimental_details: NCI Yeast Anticancer Drug Screen. Data for the mgt1 strain (AID 153)
experimental_setup: S. cerevisiae mgt1 mutant growth inhibition; at 1.2 µM; active compounds read high
Description: Growth inhibition of yeast strains with defined genetic alterations is measured as a screen for potential anti-cancer activity. Selected strains with alterations in DNA damage repair or cell cycle control were exposed to compounds and growth inhibition was measured relative to vehicle treated controls. The strain used in this assay is mgt1
Compounds without any hit were thinned out: in the full panel of roughly 79,000, 15% have a hit. The source made the active and inactive calls. Rule as the data show it: active = growth inhibition above about 70%; inactive = the rest.
observation_type: growth inhibition

Bench note: what growth inhibition did `O=C1C=CC(=Nc2ccc3c(c2)Cc2cc(NC(=O)C(F)(F)F)ccc2-3)O1` show?
1% (inactive)

Fill in the blank: the reported growth inhibition of `CCCCCCCCCCCC1=C(O)C(=O)C=C(O)C1=O` is ____.
-3% (inactive)

Suppose we examine the compound `c1ccc(-c2ccnc3c2ccc2c(-c4ccccc4)ccnc23)cc1` ; what growth inhibition value has been reported?
10% (inactive)

Requested read-out: growth inhibition. Entry: `CCCCCCCCNC(=O)C1=C(C)NC(C)=C(C(=O)NCCCCCCCC)C1`
0% (inactive)

Suppose we examine the compound `Cc1ccc2ccc(O)cc2c1` ; what growth inhibition value has been reported?
-25% (inactive)

Any idea what its growth inhibition is? The compound is `c1ccc2c(c1)NC(NC1Nc3ccccc3N1)N2`
-4% (inactive)

Any idea what its growth inhibition is? The compound is `O=C(Cc1csc2[n+]1C(=O)/C(=C/c1ccc(Cl)cc1)S2)Nc1ccccc1`
-1% (inactive)

Field request: growth inhibition | item: Nc1ccn(C2OC(CO)C3[O][Sn]([c]4ccccc4)([c]4ccccc4)[O]C32)c(=O)n1 (centres undefined)
7% (inactive)

Fill in: growth inhibition of CCc1ncnc2cc(OCC3CO3)c(OC)cc12 (centres undefined) is ___
-14% (inactive)

Reported growth inhibition for `CO[C@H]1C[C@](C)(O)Cc2cc3c(c(O)c21)C(=O)c1c(O)cc2c(c1C3=O)O[C@@H]1O[C@@]2(C)[C@H](O)[C@@H](N(C)C)[C@@H]1O` : what is it?
-28% (inactive)

Name the reported growth inhibition value associated with the compound `Cn1c(=O)c(-c2ccccc2)c(N=[N+]=[N-])c2ccccc21`
1% (inactive)

Request the reported growth inhibition associated with `Nc1ncncc1C(C1=C(O)COC1=O)C1=C(O)COC1=O`
-2% (inactive)

Which growth inhibition reading was recorded for the compound `O=C(N=Nc1cc(Cl)ccc1Cl)NNc1cc(Cl)ccc1Cl` ?
-3% (inactive)

Recorded growth inhibition of `CCCCc1cc(O)ccc1O` , please.
-4% (inactive)

If you can, please state the reported growth inhibition value of OCC1OC(OCC(O)C(O)C(O)C(/C=N/Nc2ccccc2)=N/Nc2ccccc2)C(O)C(O)C1O (centres undefined) .
3% (inactive)

Find the recorded growth inhibition belonging to `CC1=C(SCCO)C(=O)c2ccccc2C1=O` and report it.
-3% (inactive)

Please report the recorded growth inhibition for `O=C(O)c1ccccc1-c1ccccc1C(=O)Nc1ccc2c(c1)Cc1ccccc1-2` .
5% (inactive)

For O=[N+]([O-])CC(SCc1ccccc1)c1ccc2c(c1)OCO2 (centres undefined) , what is its reported growth inhibition?
9% (inactive)

I am curious: what growth inhibition value has been reported for `O=C(COC(=O)c1cc(O)c(O)c(O)c1)c1ccc(-c2ccccc2)cc1` ?
-1% (inactive)

Entry `Cc1ccc2ccc3cccc4ccc1c2c34` has what growth inhibition?
-1% (inactive)

Report growth inhibition for `CC(=O)N/N=C/C(C)(C)C(C)(C)/C=N/NC(C)=O` please.
2% (inactive)

// growth inhibition lookup, key: `Cc1ccc(N)c(S)c1`
-11% (inactive)

Look up growth inhibition: `O=C(c1cc(Br)ccc1O)c1cc(Br)ccc1O`
38% (inactive)

Data request, read-out growth inhibition, for `S=C(S)NN1CCOCC1`
52% (inactive)

* * *

experimental_details: NCI Yeast Anticancer Drug Screen. Data for the mec2-1 strain (AID 157)
experimental_setup: S. cerevisiae mec2-1 strain, at 33.0 µM, active compounds read high
About 79,000 compounds went through this panel and 15% of them were active in at least one assay; those are over-represented in the sample as a whole.
Short version: growth inhibition at least 50% is 1.0, less is 0.0.

Identify whether the reported growth inhibition of the following compound is 50% or greater: `N#CN1C2CCC1CC(=O)C2`
0.0

Decide: growth inhibition of CNC1C(OC2C(OC3C(O)C(O)C(N=C(N)N)C(O)C3N=C(N)N)OC(C)C2(O)CO)OC(CO)C(O)C1O (configuration not stated) >= 50%?
0.0

Is it the case that `C=C(CN(C)C)C(=O)c1cc(C)ccc1C` has growth inhibition reaching or exceeding 50%?
1.0

Test whether the compound `O=[N+]([O-])/C=C/c1ccc2ccccc2c1` records growth inhibition of 50% or higher.
1.0

Entry `COc1cc2c3c(cccc3c1)C(=O)N(CCN(C)C)C2=O` : is its growth inhibition no less than 50%?
0.0

# bool: growth inhibition of `CC(C)/C(Cl)=N\OC(=O)Nc1ccc(F)cc1` >= 50%
0.0

Answer whether growth inhibition of CC(/C=C/c1ccc2c(c1)OCO2)[N+](=O)[O-] (configuration not stated) is greater than or equal to 50%.
1.0

Determine whether this compound has growth inhibition no lower than 50%: `Fc1ccc(NC(=S)SCc2ccc(Cl)c(Cl)c2)cc1F`
1.0

Can `Cc1cc(O)cc(O)c1N=Nc1ccc([N+](=O)[O-])cc1` be said to have growth inhibition at or above 50%?
0.0

Is reported growth inhibition greater than or equal to 50% here: `CCCCCCCCCCNC(=O)OCC`
0.0

// inclusive: growth inhibition at least 50%? input: `O=[N+]([O-])c1cccc2nc3ccccc3c(NCCCN3CCOCC3)c12`
1.0

Is the recorded value of growth inhibition equal to or greater than 50% for this compound? COc1cc(C2c3cc4c(cc3OC(NNc3ccccc3)C2C)OCO4)cc(OC)c1OC (configuration not stated)
1.0

* * *

experimental_details: NCI Yeast Anticancer Drug Screen. Data for the mlh1 strain (AID 171);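 also: 0% = growth of vehicle-treated control cultures of the same strain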
experimental_setup: S. cerevisiae mlh1 strain growth inhibition; at 11.0 µM; active compounds read high
The panel holds about 79,000 compounds, 15% with a hit somewhere; the sample as a whole holds those more often. The source made the active and inactive calls. Rule as the data show it: active = growth inhibition above about 70%; inactive = the rest.
observation_type: growth inhibition

Any idea what its growth inhibition is? The molecule is `O=C(NCCCCNCCCNC(=O)c1cc(-c2ccccc2)nc2ccccc12)c1cc(-c2ccccc2)nc2ccccc12`
0% (inactive)

Requested read-out: growth inhibition. Entry: `O=C1C=CC(=Nc2ccc3c(c2)Cc2cc(NC(=O)C(F)(F)F)ccc2-3)O1`
22% (inactive)

Please report the recorded growth inhibition for COC(=O)C1=C(C(=O)OC)C2(C)C=CC1O2 (stereo not given) .
-7% (inactive)

Data request, read-out growth inhibition, for `CCOC(=O)c1cnc2cc(C(F)(F)F)ccc2c1N=[N+]=[N-]`
15% (inactive)

Quick check: growth inhibition of `Oc1ccc2ccccc2c1C(c1ccc(Cl)cc1)c1c(O)ccc2ccccc12` ?
-32% (inactive)

Recorded growth inhibition for `NNC(=O)CCc1ccc2ccc3ccccc3c2c1` , please?
5% (inactive)

Query: growth inhibition; subject: CCC[CH2][Ge]([CH2]CCC)([CH2]CCC)[O]C(=O)C(OC)c1ccccc1 (stereo not given)
-1% (inactive)

Give the measured growth inhibition of O=C1NC(=O)C2C3C=CC(C3)C12 (stereo not given) .
79% (active)

What value of growth inhibition has been recorded for this entry: `Fc1ccc(NC(=S)SCc2ccc(Cl)c(Cl)c2)cc1F`
27% (inactive)

// lookup growth inhibition for `O=C(N=Nc1ccccc1Cl)NNc1ccccc1Cl`
2% (inactive)

I am curious: what growth inhibition value has been reported for `COc1ccc(O)c(/C=N\Nc2ccccc2)c1` ?
-7% (inactive)

Give its growth inhibition value. Item: `CC[C@@]1(O)C(=O)OCc2c1cc1n(c2=O)Cc2cc3c(N)cccc3nc2-1`
11% (inactive)

What does the record list as growth inhibition for `c1ccc(-c2ccnc3c2ccc2c(-c4ccccc4)ccnc23)cc1` ?
46% (inactive)

Entry CCCCCCCCCCCCCCC(C(=O)[O-])[n+]1ccccc1 (stereo not given) : reported growth inhibition = ?
-12% (inactive)

May I ask what growth inhibition has been recorded for CCOP(=O)(OCC)C(Cc1ccccc1)N=C(c1ccccc1)c1ccccc1 (stereo not given) ?
5% (inactive)

Using the record for `COc1ccc(NC(=S)N/N=C(\c2ccccc2)c2ccccn2)cc1` , report its growth inhibition.
-2% (inactive)

Requested read-out: growth inhibition. Entry: `CN(C)c1nc2sc3c(c2c(=O)o1)CCCC3`
-2% (inactive)

Sample `N#CSc1ccc(S(N)(=O)=O)cc1` — what was its growth inhibition?
-33% (inactive)

Value lookup for growth inhibition; key = CC(C)(CN1CCCCC1)C(=O)CC(SCCS(=O)(=O)O)c1ccc(Br)cc1 (stereo not given)
17% (inactive)

Please report the recorded growth inhibition for `CCS(=O)(=O)c1ccc(/C=C/C=N/NC(=S)NCC(C)C)cc1` .
-3% (inactive)

I have this molecule here, CC(=O)OC1CCC2(C)C(=CCC3C4CCC5(OC6CC(C)CN(C(C)=O)C6C5C)C(C)=C4C(=O)C32)C1 (stereo not given) , and I need its recorded growth inhibition.
51% (inactive)

Query (molecule): C=C1CC(Cn2cc(Br)c(=O)[nH]c2=O)(c2ccc(-c3ccccc3)cc2)OC1=O (stereo not given) ; field requested: growth inhibition
28% (inactive)

Any idea what growth inhibition was measured for `CCN(CC)CC[n+]1ccc2c(C)c3[nH]c4ccc(O)cc4c3c(C)c2c1` ?
1% (inactive)

# get_value(readout='growth inhibition', item= `CCC/C(Cl)=N\OC(=O)Nc1cccc(C(F)(F)F)c1` )
16% (inactive)

Please look up its growth inhibition: `O=C1c2ccccc2-c2nc3ccccc3nc21`
-25% (inactive)

Any idea what growth inhibition was measured for `CC1=C(C)Cc2c(O)ccc(O)c2C1` ?
12% (inactive)

Value lookup for growth inhibition; key = `CC(C)/C(Cl)=N\OC(=O)Nc1ccccc1F`
14% (inactive)

Requested read-out: growth inhibition. Entry: COc1cc(C2SCC(=O)N2c2ccc(-c3ccc(-n4c(-c5ccccc5)nc5ccccc5c4=O)cc3)cc2)cc(OC)c1OC (stereo not given)
1% (inactive)

Which growth inhibition is reported for this molecule? CCCCCCCCCCC1CCC(=O)O1 (stereo not given)
0% (inactive)

# input molecule: `CCC(=O)c1cccc2ccccc12` ; wanted: its growth inhibition
2% (inactive)

// growth inhibition lookup, key: COC1=CC(=O)C(C2(OC(C)C)OC(=O)C(Cl)=C2Cl)=CC1=O (stereo not given)
99% (active)

For the molecule CCC(C(=O)O)C1=C(c2ccccc2)CCc2ccccc21 (stereo not given) , what growth inhibition is on record?
96% (active)

Look at this molecule and give its reported growth inhibition. `O=[N+]([O-])C(=C(Sc1ccccc1)Sc1ccccc1)C(Cl)=C(Cl)Cl`
40% (inactive)

# get_value(readout='growth inhibition', item= `CC(C)(Br)C(=O)/C=C/c1ccc(Cl)c(Cl)c1` )
-2% (inactive)

Which value of growth inhibition has been reported for `[O-][n+]1c2ccc(O)cc2nc2ccc(Br)cc21` in the records?
29% (inactive)

Query (molecule): `C#CCCCc1ccccc1` ; field requested: growth inhibition
-26% (inactive)

I am curious: what growth inhibition value has been reported for O=C(O)C1CCCCC1c1c2ccc(=O)c(O)c-2oc2c(O)c(O)ccc12 (stereo not given) ?
-33% (inactive)

Find the recorded growth inhibition belonging to CCOC(=O)C(NC(=O)c1ccccc1)(N1CCN(c2cc3c(cc2F)c(=O)c(C(=O)O)cn3C2CC2)CC1)C(F)(F)F (stereo not given) and report it.
0% (inactive)

Query (molecule): `CN(C)c1ccc(Sc2ccc3nc(N)nc(N)c3c2)cc1` ; field requested: growth inhibition
-16% (inactive)

Reported growth inhibition, molecule COC(=O)C1=C(C)NC(C)=C(C(=O)OCCCN2CCC(c3ccccc3)(c3ccccc3)CC2)C1c1cccc([N+](=O)[O-])c1 (stereo not given) : ____
98% (active)

Record request: growth inhibition value, item `COc1ccc(/C(C)=N/OC(=O)c2c(-c3ccccc3Cl)noc2C)cc1CN1CCOCC1`
-27% (inactive)

Returns the measured growth inhibition for the input molecule. Input: `CCC/C(Cl)=N\OC(=O)Nc1ccc(Br)cc1`
76% (active)

# input molecule: `S=C(Nc1ccc(Cl)c(Cl)c1)SCc1ccc2c(c1)OCO2` ; wanted: its growth inhibition
99% (active)

I have this molecule here, O=[N+]([O-])CC(SCc1ccccc1)c1ccc2c(c1)OCO2 (stereo not given) , and I need its recorded growth inhibition.
94% (active)

What value of measured growth inhibition is listed for `CC1(C)[C@@H]2CC[C@]1(C)[C@H](OC(=O)CSC#N)C2` ?
29% (inactive)

meta.source: PubChem BioAssay (NCI)
